The reported measurements were obtained from PubChem BioAssay AID248.

Test system: L1210 leukemia ip in BDF1 mice, survival T/C
TEST_NAME: NCI In Vivo Anticancer Drug Screen. Data for tumor model L1210 Leukemia (intraperitoneal) in B6D2F1 (BDF1) mice
CONDITION_SET: endpoint: mean survival time; dose: 400.0 mg/kg/injection; schedule: Q04DX003 (ip); vehicle: Klucel (hydroxypropylcellulose) (HPC); higher = longer survival
Inconclusive results and toxic doses are left out.
MEASURED_ENDPOINT: T/C

Record request: T/C value, item O=C(Nc1ccc([N+](=O)[O-])cc1Cl)Oc1ccc(OCc2ccccc2)cc1
96 % of control

Also check ClC(Cl)(Cl)C1NCCO1 (centres undefined)
94 % of control

Also check CCOC(=O)C(C(=O)OCC)C(C)(C)Cc1ccccc1
93 % of control

Also check COC(C)C(O)(C(N)=O)C(C)C (centres undefined)
97 % of control

Also check S=c1sscc1-c1ccccc1
98 % of control

Also check Nc1ccc(OC(F)(F)C(F)Cl)cc1 (centres undefined)
101 % of control

Also check O=C1NC(c2ccc3ccccc3c2)Nc2ccccc21 (centres undefined)
105 % of control

Also check COC1CCC(NC(=O)NCCCl)CC1 (centres undefined)
97 % of control

Also check O=C(Nc1ccccc1)OC1CCCC1
96 % of control

Also check c1ccc(COc2ccc3oc4ccccc4c3c2)cc1
91 % of control

Also check COC(C)c1cnccc1/C(C)=C1/Nc2ccccc2C1=O (centres undefined)
97 % of control

Also check CCC(CC)(CO)CO
97 % of control

Also check CC(=O)c1ccc(C(C)=O)c(OCc2ccccc2)c1
97 % of control

Also check CCCCNC(=O)Nc1ccc(OC)cc1
102 % of control

---

Record form. Attribute: T/C. Fill in for each entry.
Test system: L1210 leukemia ip in BDF1 mice, survival T/C
TEST_NAME: NCI In Vivo Anticancer Drug Screen. Data for tumor model L1210 Leukemia (intraperitoneal) in B6D2F1 (BDF1) mice
CONDITION_SET: endpoint: mean survival time; dose: 400.0 mg/kg/injection; schedule: Q01DX009 (ip); vehicle: Klucel (hydroxypropylcellulose) (HPC); higher = longer survival
Toxic doses and inconclusive results are not listed.

Record request: T/C value, item CCc1ccc(/C(C#N)=C/c2ccc(OC)cc2)cc1
92 % of control

Also check CC(C)(C)NC(=O)CCC1C(NC(=O)C(C)(C)C)C2(Cl)C(Cl)=C(Cl)C1(Cl)C2(Cl)Cl (configuration not stated)
90 % of control

Also check COc1ccc(NC(=O)C(Br)C(Br)c2ccccc2)c(Cl)c1 (configuration not stated)
96 % of control

Also check COC(=O)C1CCCC23CC(CC12)C(C)(C)C3Br (configuration not stated)
90 % of control

Also check CCCCCCCCCCCCSC(SCCCCCCCCCCCC)c1ccc(OCC(=O)O)cc1
97 % of control

Also check Cc1cccc(C)c1NC(=S)N(CCC#N)Cc1ccccc1
96 % of control

Also check COc1ccc([N+](=O)[O-])cc1NC(=O)N/N=C(\C)C(C)(C)C
86 % of control

Also check O=C(O)/C=C/C(=O)NCCc1ccccc1
96 % of control

Also check CC(C)(c1cc(Br)c(O)c(Br)c1)c1cc(Br)c(O)c(Br)c1
91 % of control

Also check Cn1cnc2c1c(=O)[nH]c(=O)n2C
89 % of control

Also check Nc1nnc(SCc2ccccc2)s1
97 % of control

Also check CC(=O)c1ccc(C(C)=O)c(OCc2ccccc2)c1
92 % of control
